In this section we review reported pKd values for a set of binders.
Molecular target: T1, Acro SARS-CoV-2 (COVID-19) S1 protein (SARS-CoV-2, UniProt P0DTC2 16-685)
T1 construct: also called SARS-CoV-2 S1
Test: SPR
pKd: −log10 of the molar value.

BINDER	pKd
variant 6-45 (Fc fusion) VHH: EVQLVESGGGLVQPGGSLRLSCAASGNMFSINAMGWFRQAPGKEREFVTLISWSSGRTSYADSVKGRFTISADNSKNTAYLQMNSLKPEDTAVYYCASLGYCSGGSCFDYWGQGTLVTVSS	7.76
variant 6-9 (Fc fusion) VHH: EVQLVESGGGLVQPGGSLRLSCAASGFTFDYYAMGWFRQAPGKEREFVSAIDSEGRTSYADSVKGRFTISADNSKNTAYLQMNSLKPEDTAVYYCARWGPFDIWGQGTLVTVSS	7.73
variant 6-39 (Fc fusion) VHH: EVQLVESGGGLVQPGGSLRLSCAASGFTFSPSWMGWFRQAPGKEREFVAAISWSGGSTAYADSVKGRFTISADNSKNTAYLQMNSLKPEDTAVYYCHGLGEGDPYGDYEGYFDLWGQGTLVTVSS	7.95
